Test system: 429239-143-T-J1-PDC complex spheroid viability
Experiment: Anticancer human tumor 429239-143-T-J1-PDC patient-derived small cell lung carcinoma cell line growth inhibition [POLQ]
Conditions: second compound 0.316 µM; first compound 3.16 µM; active compounds read low
Output Criterion met for records whose viability, T/C is lower than 80%, Criterion not met for records at or above 80%.

MOLECULE	ASSAYED_TARGET	GROUP_LABEL
COc1cc(C2c3cc4c(cc3C(OC3OC5COC(C)OC5C(O)C3O)C3COC(=O)C23)OCO4)cc(OC)c1O (stereo unspecified) + Cc1cccc(N(C)C(=O)C2C(O)CCN2c2nc(C)cc(C(F)(F)F)c2C#N)c1	429239-143-T-J1-PDC complex spheroid viability	Criterion met
CCCS(=O)(=O)Nc1ccc(F)c(C(=O)c2c[nH]c3ncc(-c4ccc(Cl)cc4)cc23)c1F + Nc1ccc(C#CCN(C(=O)Cc2ncc(C(F)(F)F)cc2C(F)(F)F)c2ccc(F)cc2)nn1	429239-143-T-J1-PDC complex spheroid viability	Criterion not met
CC1COCCN1c1cc(-c2ccnn2C)c2ccnc(-c3ccn[nH]3)c2n1 (stereo unspecified) + Cc1cccc(N(C)C(=O)C2C(O)CCN2c2nc(C)cc(C(F)(F)F)c2C#N)c1	429239-143-T-J1-PDC complex spheroid viability	Criterion met
CCc1cc2c(N3CCc4c(cc(Cn5ccnc5)cc4-c4cn(C)nc4C(F)(F)F)C3=O)ccnc2c(OC)n1 + COC1C(OC(N)=O)C(O)C(Oc2ccc3c(O)c(NC(=O)c4ccc(O)c(CC=C(C)C)c4)c(=O)oc3c2C)OC1(C)C	429239-143-T-J1-PDC complex spheroid viability	Criterion met
CCc1cc2c(N3CCc4c(cc(Cn5ccnc5)cc4-c4cn(C)nc4C(F)(F)F)C3=O)cc(C)nc2c(OC)n1 + Nc1ccc(C#CCN(C(=O)Cc2ncc(C(F)(F)F)cc2C(F)(F)F)c2ccc(F)cc2)nn1	429239-143-T-J1-PDC complex spheroid viability	Criterion met
Nc1ccn(C2OC(CO)C(O)C2(F)F)c(=O)n1 (stereo unspecified) + Nc1ccc(C#CCN(C(=O)Cc2ncc(C(F)(F)F)cc2C(F)(F)F)c2ccc(F)cc2)nn1	429239-143-T-J1-PDC complex spheroid viability	Criterion met
O=C(c1cc(Cc2n[nH]c(=O)c3ccccc23)ccc1F)N1CCN(C(=O)C2CC2)CC1 + Cc1cccc(N(C)C(=O)C2C(O)CCN2c2nc(C)cc(C(F)(F)F)c2C#N)c1	429239-143-T-J1-PDC complex spheroid viability	Criterion met
CCCS(=O)(=O)Nc1ccc(F)c(C(=O)c2c[nH]c3ncc(-c4ccc(Cl)cc4)cc23)c1F + Cc1cccc(N(C)C(=O)C2C(O)CCN2c2nc(C)cc(C(F)(F)F)c2C#N)c1	429239-143-T-J1-PDC complex spheroid viability	Criterion not met
CNCc1ccc(-c2[nH]c3cc(F)cc4c3c2CCNC4=O)cc1 + Cc1cccc(N(C)C(=O)C2C(O)CCN2c2nc(C)cc(C(F)(F)F)c2C#N)c1	429239-143-T-J1-PDC complex spheroid viability	Criterion met
C=CC(=O)N1CCN(c2nc(=O)n(-c3c(C)ccnc3C(C)C)c3nc(-c4c(O)cccc4F)c(F)cc23)C(C)C1 (stereo unspecified) + COC1C(OC(N)=O)C(O)C(Oc2ccc3c(O)c(NC(=O)c4ccc(O)c(CC=C(C)C)c4)c(=O)oc3c2C)OC1(C)C	429239-143-T-J1-PDC complex spheroid viability	Criterion not met

###

Tested on: 429239-143-T-J1-PDC complex spheroid viability
Assay: Anticancer human tumor 429239-143-T-J1-PDC cell line growth inhibition [POLQ]; active means viability on the fitted dose curve at most 10% of control; inactive means the rest;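 note: luminescence signal used as surrogate measure of viable cells; spheroids exposed to compounds for seven days before readout; 100% = DMSO vehicle control viability as luminescence relative to vehicle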
Details: second compound 1 µM; first compound 1 µM
Outcome codes: active, inactive

MOLECULE	GROUP_LABEL
C=CCn1c(=O)c2cnc(Nc3ccc(N4CCN(C)CC4)cc3)nc2n1-c1cccc(C(C)(C)O)n1 + Cc1cccc(N(C)C(=O)C2C(O)CCN2c2nc(C)cc(C(F)(F)F)c2C#N)c1	inactive
COc1cccc2c1C(=O)c1c(O)c3c(c(O)c1C2=O)CC(O)(C(=O)CO)CC3OC1CC(N)C(O)C(C)O1 (stereo not given) + Nc1ccc(C#CCN(C(=O)Cc2ncc(C(F)(F)F)cc2C(F)(F)F)c2ccc(F)cc2)nn1	active
CCc1cc2c(N3CCc4c(cc(Cn5ccnc5)cc4-c4cn(C)nc4C(F)(F)F)C3=O)ccnc2c(OC)n1 + Cc1cccc(N(C)C(=O)C2C(O)CCN2c2nc(C)cc(C(F)(F)F)c2C#N)c1	inactive
COc1ccc([C@@H](O)c2cc(-c3ncnc4cc(N5CCOCC5)ccc34)c(F)cc2Cl)nn1 + Cc1cccc(N(C)C(=O)C2C(O)CCN2c2nc(C)cc(C(F)(F)F)c2C#N)c1	inactive
COc1cccc(OCCCN)c1-c1cc(Nc2cnc(C#N)cn2)n[nH]1 + Nc1ccc(C#CCN(C(=O)Cc2ncc(C(F)(F)F)cc2C(F)(F)F)c2ccc(F)cc2)nn1	inactive

###

Tested on: 429239-143-T-J1-PDC complex spheroid viability
Experiment: Anticancer human tumor 429239-143-T-J1-PDC cell line growth inhibition [POLQ];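 note: luminescence signal used as surrogate measure of viable cells; spheroids exposed to compounds for seven days before readout; 100% = DMSO vehicle control viability as luminescence relative to vehicle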
Conditions: second compound 0.0316 µM; first compound 10 µM; active compounds read low

COMPOUND	viability, T/C [%]
CCc1cc2c(N3CCc4c(cc(Cn5ccnc5)cc4-c4cn(C)nc4C(F)(F)F)C3=O)cc(C)nc2c(OC)n1 + Nc1ccc(C#CCN(C(=O)Cc2ncc(C(F)(F)F)cc2C(F)(F)F)c2ccc(F)cc2)nn1	41.3
C#Cc1c(F)ccc2cc(O)cc(-c3ncc4c(N5CC6CCC(C5)N6)nc(OCC56CCCN5CC(F)C6)nc4c3F)c12 (stereo unspecified) + Nc1ccc(C#CCN(C(=O)Cc2ncc(C(F)(F)F)cc2C(F)(F)F)c2ccc(F)cc2)nn1	89.3
CCCS(=O)(=O)Nc1ccc(F)c(C(=O)c2c[nH]c3ncc(-c4ccc(Cl)cc4)cc23)c1F + Nc1ccc(C#CCN(C(=O)Cc2ncc(C(F)(F)F)cc2C(F)(F)F)c2ccc(F)cc2)nn1	93.3
O=C(Nc1ccc(O)c(NS(=O)(=O)c2ccc(F)cc2)c1)c1ccc(-c2ccccc2)cc1 + Cc1cccc(N(C)C(=O)C2C(O)CCN2c2nc(C)cc(C(F)(F)F)c2C#N)c1	105
CC1COCCN1c1cc(C2(S(C)(=N)=O)CC2)nc(-c2ccnc3[nH]ccc23)n1 (stereo unspecified) + Cc1cccc(N(C)C(=O)C2C(O)CCN2c2nc(C)cc(C(F)(F)F)c2C#N)c1	15.9
COc1cccc2c1C(=O)c1c(O)c3c(c(O)c1C2=O)CC(O)(C(=O)CO)CC3OC1CC(N)C(O)C(C)O1 (stereo unspecified) + Nc1ccc(C#CCN(C(=O)Cc2ncc(C(F)(F)F)cc2C(F)(F)F)c2ccc(F)cc2)nn1	0.32
O=C(c1cc(Cc2n[nH]c(=O)c3ccccc23)ccc1F)N1CCN(C(=O)C2CC2)CC1 + Nc1ccc(C#CCN(C(=O)Cc2ncc(C(F)(F)F)cc2C(F)(F)F)c2ccc(F)cc2)nn1	7.77
CC1COCCN1c1cc(C2(S(C)(=N)=O)CC2)nc(-c2ccnc3[nH]ccc23)n1 (stereo unspecified) + Nc1ccc(C#CCN(C(=O)Cc2ncc(C(F)(F)F)cc2C(F)(F)F)c2ccc(F)cc2)nn1	53.3
O=c1[nH]cc(F)c(=O)[nH]1 + Nc1ccc(C#CCN(C(=O)Cc2ncc(C(F)(F)F)cc2C(F)(F)F)c2ccc(F)cc2)nn1	31.6
O=C(Nc1ccc(O)c(NS(=O)(=O)c2ccc(F)cc2)c1)c1ccc(-c2ccccc2)cc1 + COC1C(OC(N)=O)C(O)C(Oc2ccc3c(O)c(NC(=O)c4ccc(O)c(CC=C(C)C)c4)c(=O)oc3c2C)OC1(C)C	66.7
CC1COCCN1c1cc(C2(S(C)(=N)=O)CC2)nc(-c2ccnc3[nH]ccc23)n1 (stereo unspecified) + COC1C(OC(N)=O)C(O)C(Oc2ccc3c(O)c(NC(=O)c4ccc(O)c(CC=C(C)C)c4)c(=O)oc3c2C)OC1(C)C	15.6
CC1COCCN1c1cc(-c2ccnn2C)c2ccnc(-c3ccn[nH]3)c2n1 (stereo unspecified) + Nc1ccc(C#CCN(C(=O)Cc2ncc(C(F)(F)F)cc2C(F)(F)F)c2ccc(F)cc2)nn1	3.79
CCCS(=O)(=O)Nc1ccc(F)c(C(=O)c2c[nH]c3ncc(-c4ccc(Cl)cc4)cc23)c1F + Cc1cccc(N(C)C(=O)C2C(O)CCN2c2nc(C)cc(C(F)(F)F)c2C#N)c1	81.7
CC1COCCN1c1cc(C2(O)CC3CCC(C2)O3)c2cnn(-c3ccn[nH]3)c2n1 (stereo unspecified) + Cc1cccc(N(C)C(=O)C2C(O)CCN2c2nc(C)cc(C(F)(F)F)c2C#N)c1	5.4
CC1COCCN1c1cc(-c2ccnn2C)c2ccnc(-c3ccn[nH]3)c2n1 (stereo unspecified) + COC1C(OC(N)=O)C(O)C(Oc2ccc3c(O)c(NC(=O)c4ccc(O)c(CC=C(C)C)c4)c(=O)oc3c2C)OC1(C)C	8.09
CCc1cc2c(N3CCc4c(cc(Cn5ccnc5)cc4-c4cn(C)nc4C(F)(F)F)C3=O)cc(C)nc2c(OC)n1 + COC1C(OC(N)=O)C(O)C(Oc2ccc3c(O)c(NC(=O)c4ccc(O)c(CC=C(C)C)c4)c(=O)oc3c2C)OC1(C)C	29
COc1cc2cc(C(=O)CCC(=O)O)sc2cc1OC + Nc1ccc(C#CCN(C(=O)Cc2ncc(C(F)(F)F)cc2C(F)(F)F)c2ccc(F)cc2)nn1	119
CNCc1ccc(-c2[nH]c3cc(F)cc4c3c2CCNC4=O)cc1 + Cc1cccc(N(C)C(=O)C2C(O)CCN2c2nc(C)cc(C(F)(F)F)c2C#N)c1	21.1
COc1cc2cc(C(=O)CCC(=O)O)sc2cc1OC + COC1C(OC(N)=O)C(O)C(Oc2ccc3c(O)c(NC(=O)c4ccc(O)c(CC=C(C)C)c4)c(=O)oc3c2C)OC1(C)C	92.4
COc1cccc2c1C(=O)c1c(O)c3c(c(O)c1C2=O)CC(O)(C(=O)CO)CC3OC1CC(N)C(O)C(C)O1 (stereo unspecified) + Cc1cccc(N(C)C(=O)C2C(O)CCN2c2nc(C)cc(C(F)(F)F)c2C#N)c1	0.13
COc1cc(C2c3cc4c(cc3C(OC3OC5COC(C)OC5C(O)C3O)C3COC(=O)C23)OCO4)cc(OC)c1O (stereo unspecified) + Cc1cccc(N(C)C(=O)C2C(O)CCN2c2nc(C)cc(C(F)(F)F)c2C#N)c1	14.3

Hello, the source for this data is PubChem BioAssay AID1963845, in case you need it.
